- measurement.description: In vitro liver microsome stability, rat
- Type: in vitro ADME
- condition.details: liver microsomes, 0.5 mg/mL microsomes, 1 μM compound, NADPH, 37° C., read-out: Rat liver microsomes Half-life T1/2
Reported half-life at 1 μM values for the following compounds.
observed.property: half-life at 1 μM

compound="CNC(=O)c1cccc(-c2cc(-n3c(C)cc(OCc4ncc(F)cc4F)c(Cl)c3=O)c(C)cn2)c1F (single isomer, unassigned) [Compound 20-P2]" observed_property="half-life at 1 μM" result="> 4.66 h"
compound="Cc1cnc(-c2cccc([C@@](C)(O)CO)c2F)cc1-n1c(C)cc(OCc2ncc(F)cc2F)c(Cl)c1=O [Compound 35-P1]" observed_property="half-life at 1 μM" result="> 4.66 h"
compound=Cc1cnc(-c2cccc(S(C)(=O)=O)c2)cc1-n1c(C)cc(OCc2ncc(F)cc2F)c(Cl)c1=O observed_property="half-life at 1 μM" result="3.79 h"
compound="[2H]C([2H])(Oc1cc(C)n(-c2cc(-c3cccc([C@@](C)(O)CO)c3F)ncc2C)c(=O)c1Cl)c1ncc(F)cc1F [Compound 146-P1]" observed_property="half-life at 1 μM" result="> 4.66 h"
compound="Cc1cnc(-c2cccc(C(=O)O)c2)c(F)c1-n1c(C)cc(OCc2ncc(F)cc2F)c(Cl)c1=O [Compound 29-P1]" observed_property="half-life at 1 μM" result="> 4.66 h"
compound="CNC(=O)c1cccc(-c2ncc(C)c(-n3c(C)cc(OCc4ncc(F)cc4F)c(Cl)c3=O)c2F)c1 [Compound 31-P1]" observed_property="half-life at 1 μM" result="2.76 h"

====

- measurement.description: In vitro liver microsome stability, mouse
- Format: in vitro ADME
- condition.details: liver microsomes, 0.5 mg/mL microsomes, 1 μM compound, NADPH, 37° C., read-out: Mouse liver microsomes Half-life T1/2
Reported half-life at 1 μM values for the following molecules.
observed.property: half-life at 1 μM (h)

molecule="[2H]C([2H])(Oc1cc(C)n(-c2cc(-c3ccc(F)c([C@@](C)(O)CO)c3F)ncc2C)c(=O)c1Cl)c1ncc(F)cc1F [Compound 145-P1]" value_relation_sign=> number=4.66
molecule=Cc1cc(OCc2ncc(F)cc2F)c(Cl)c(=O)n1-c1ccnc(-c2cccc(C(C)(C)O)c2F)c1 value_relation_sign=> number=4.66
molecule=Cc1cnc(-c2cccc(S(C)(=O)=O)c2)cc1-n1c(C)cc(OCc2ncc(F)cc2F)c(Cl)c1=O value_relation_sign== number=4.22
molecule="[2H]C([2H])(Oc1cc(C)n(-c2cc(-c3cccc([C@@](C)(O)CO)c3F)ncc2C)c(=O)c1Cl)c1ncc(F)cc1F [Compound 146-P1]" value_relation_sign== number=2.29
molecule="Cc1cnc(-c2cccc([C@@](C)(O)CO)c2F)cc1-n1c(C)cc(OCc2ncc(F)cc2F)c(Cl)c1=O [Compound 35-P1]" value_relation_sign=> number=4.66
molecule="Cc1cnc(-c2ccc(F)c(C(C)(C)O)c2F)cc1-n1c(C)cc(OCc2ncc(F)cc2F)c(Cl)c1=O [Compound 111-P2]" value_relation_sign=> number=4.66
molecule=Cc1cnc(-c2cccc(C(N)=O)c2)cc1-n1c(C)cc(OCc2ncc(F)cc2F)c(Cl)c1=O value_relation_sign== number=2.93

====

- target: p38 MAPK/MK2 (Homo sapiens)
- Construct: purchased Carna (p38α); Abcam (MK2) 04-152; 79910
- Sequence (Q16539 whole entry): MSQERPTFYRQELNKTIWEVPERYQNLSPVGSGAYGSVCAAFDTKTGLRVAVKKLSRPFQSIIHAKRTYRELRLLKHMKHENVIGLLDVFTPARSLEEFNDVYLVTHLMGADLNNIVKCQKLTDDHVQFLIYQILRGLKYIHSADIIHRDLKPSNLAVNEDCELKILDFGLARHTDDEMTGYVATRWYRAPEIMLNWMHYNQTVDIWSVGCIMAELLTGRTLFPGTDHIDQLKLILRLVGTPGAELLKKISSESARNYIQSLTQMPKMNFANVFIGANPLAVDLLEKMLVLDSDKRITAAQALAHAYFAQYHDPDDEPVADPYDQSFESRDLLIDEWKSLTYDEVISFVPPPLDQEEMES
- Sequence (P49137 whole entry partner): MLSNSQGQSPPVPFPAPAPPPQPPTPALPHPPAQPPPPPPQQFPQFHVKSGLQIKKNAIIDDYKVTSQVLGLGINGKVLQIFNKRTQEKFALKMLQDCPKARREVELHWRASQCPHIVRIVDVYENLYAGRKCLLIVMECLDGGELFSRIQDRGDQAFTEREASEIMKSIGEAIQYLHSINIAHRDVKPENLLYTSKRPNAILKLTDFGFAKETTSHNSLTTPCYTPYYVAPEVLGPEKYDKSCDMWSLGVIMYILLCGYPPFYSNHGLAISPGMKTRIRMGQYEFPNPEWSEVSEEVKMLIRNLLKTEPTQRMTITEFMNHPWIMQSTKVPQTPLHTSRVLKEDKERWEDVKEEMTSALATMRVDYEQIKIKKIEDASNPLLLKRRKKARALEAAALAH
- measurement.description: In vitro activity assay of p38 MAPK/MK2 (Z-LYTE kinase assay kit)
- Format: biochemical
- condition.details: active p38α, inactive MK2, Ser/Thr 4; 1-hour reaction at 20° C.
Reported IC50 values for the following compounds.
observed.property: IC50

compound="Cc1cnc(-c2cc([C@@](C)(O)CO)ccc2Cl)c(F)c1-n1c(C)cc(OCc2ncc(F)cc2F)c(Cl)c1=O [Compound 107-P1]" result="4.99 nM"
compound="Cc1cnc(-c2ccc(F)c(C(C)(C)O)c2)c(F)c1-n1c(C)cc(OCc2ncc(F)cc2F)c(Cl)c1=O [Compound 70-P1]" result="0.38 nM"
compound="CNC(=O)C(C)(O)c1cccc(-c2cc(-n3c(C)cc(OCc4ncc(F)cc4F)c(Cl)c3=O)c(C)cn2)c1F (single isomer, unassigned) [Compound 121-P1]" result="6.81 nM"
compound="Cc1cnc(-c2cccc(C(=O)N3CC(C)(O)C3)c2)cc1-n1c(C)cc(OCc2ncc(F)cc2F)c(Cl)c1=O [Compound 10]" result="60.5 nM"
